These entries and their values trace back to patent US11434258B2.

tested.on: GnRHR (Homo sapiens, UniProt P30968)
Construct: host or cells: CHO-K1 (CHO-K1/GnRHR/Ga15)
Sequence (P30968 whole entry): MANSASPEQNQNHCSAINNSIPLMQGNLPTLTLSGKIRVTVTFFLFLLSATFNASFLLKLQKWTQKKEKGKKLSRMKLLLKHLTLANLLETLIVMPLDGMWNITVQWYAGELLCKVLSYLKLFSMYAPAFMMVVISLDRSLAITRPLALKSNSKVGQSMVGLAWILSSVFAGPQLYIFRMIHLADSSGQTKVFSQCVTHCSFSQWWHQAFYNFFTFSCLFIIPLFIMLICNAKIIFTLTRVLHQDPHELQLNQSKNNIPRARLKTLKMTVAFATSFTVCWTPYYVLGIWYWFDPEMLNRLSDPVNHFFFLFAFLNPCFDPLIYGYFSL
protocol.text: Calcium assay in CHO-K1 cells (Genscript), FLIPR
Format: cell-based
assay.context: CHO-K1/GnRHR/Ga15 cells, relative to agonist control, read-out: GNRHR Stimulation at 1 μM
Non-standard residues stand in square brackets, D forms with d. Residues, ends and D or L forms follow the SMILES beside them. *: point of attachment. pGlu = O=C1CC[C@@H](C(=O)O)N1; tBu = CC(C)(C)*
Could you please report measured activation at 1 µM for the items listed next?
The response must be a number in % with no trailing unit.

Prompt line: Quick one: activation at 1 µM for CCNC(=O)[C@@H]1CCCN1C(=O)[C@H](Cc1ccc(O)cc1)NC(=O)[C@H](CC(C)C)NC(=O)[C@@H](COC(C)(C)C)NC(=O)[C@H](Cc1ccc(O)cc1)NC(=O)[C@H](CO)NC(=O)[C@H](Cc1c[nH]c2ccccc12)NC(=O)[C@H](Cc1c[nH]cn1)NC(=O)[C@@H]1CCC(=O)N1 [Compound 9] ([pGlu]HWSY[dS](tBu)LYP-NHEt) ?
Response line: 78

Prompt line: activation at 1 µM lookup needed for CC(C)C[C@H](NC(=O)[C@@H](COC(C)(C)C)NC(=O)[C@H](Cc1ccc(O)cc1)NC(=O)[C@H](CO)NC(=O)[C@H](Cc1c[nH]c2ccccc12)NC(=O)[C@H](Cc1cnc[nH]1)NC(=O)[C@@H]1CCC(=O)N1)C(=O)N[C@@H](CCCNC(=N)N)C(=O)N1CCC[C@H]1C(=O)NNC(N)=O [Goserelin] , thanks.
Response line: 99

Prompt line: I would be grateful if you could share the reported activation at 1 µM for CC(C)C[C@H](NC(=O)[C@@H](Cc1c[nH]c2ccccc12)NC(=O)[C@H](Cc1c[nH]cn1)NC(=O)[C@H](CO)NC(=O)[C@H](Cc1c[nH]c2ccccc12)NC(=O)[C@H](Cc1c[nH]cn1)NC(=O)[C@@H]1CCC(=O)N1)C(=O)N[C@@H](CCCNC(=N)N)C(=O)N1CCC[C@H]1C(=O)NCC(N)=O [Compound 68] ([pGlu]HWSH[dW]LRPG-NH2) .
Response line: 86

Prompt line: What value of measured activation at 1 µM is listed for CCNC(=O)[C@@H]1CCCN1C(=O)[C@H](Cc1ccc(O)cc1)NC(=O)[C@H](CC(C)C)NC(=O)[C@@H](CC(C)C)NC(=O)[C@H](Cc1c[nH]cn1)NC(=O)[C@H](CO)NC(=O)[C@H](Cc1c[nH]c2ccccc12)NC(=O)[C@H](Cc1c[nH]cn1)NC(=O)[C@@H]1CCC(=O)N1 [Compound 48] ([pGlu]HWSH[dL]LYP-NHEt) ?
Response line: 118

Prompt line: Suppose we examine the compound CCNC(=O)[C@@H]1CCCN1C(=O)[C@H](Cc1ccc(O)cc1)NC(=O)[C@H](CC(C)C)NC(=O)[C@@H](CC(C)C)NC(=O)[C@H](Cc1ccc(O)cc1)NC(=O)[C@H](CO)NC(=O)[C@H](Cc1c[nH]c2ccccc12)NC(=O)[C@H](Cc1c[nH]cn1)NC(=O)[C@@H]1CCC(=O)N1 [Compound 45] ([pGlu]HWSY[dL]LYP-NHEt) ; what activation at 1 µM value has been reported?
Response line: 105

Prompt line: So what does the record say about activation at 1 µM for CCNC(=O)[C@@H]1CCCN1C(=O)[C@H](Cc1ccc(O)cc1)NC(=O)[C@H](Cc1c[nH]c2ccccc12)NC(=O)[C@@H](CC(C)C)NC(=O)[C@H](Cc1c[nH]cn1)NC(=O)[C@H](CO)NC(=O)[C@H](Cc1c[nH]c2ccccc12)NC(=O)[C@H](Cc1c[nH]cn1)NC(=O)[C@@H]1CCC(=O)N1 [Compound 50] ([pGlu]HWSH[dL]WYP-NHEt) ?
Response line: 105
